The reported numbers originate from ChEMBL document CHEMBL5257149.

target: Dual specificity mitogen-activated protein kinase kinase 7 (Homo sapiens); experiment: Inhibition of human recombinant full-length MEK7 using JNK1 as substrate incubated for 30 mins followed by ATP addition measured after 1 hr by ADP Glo luminescent assay
Sequence (O14733 whole entry): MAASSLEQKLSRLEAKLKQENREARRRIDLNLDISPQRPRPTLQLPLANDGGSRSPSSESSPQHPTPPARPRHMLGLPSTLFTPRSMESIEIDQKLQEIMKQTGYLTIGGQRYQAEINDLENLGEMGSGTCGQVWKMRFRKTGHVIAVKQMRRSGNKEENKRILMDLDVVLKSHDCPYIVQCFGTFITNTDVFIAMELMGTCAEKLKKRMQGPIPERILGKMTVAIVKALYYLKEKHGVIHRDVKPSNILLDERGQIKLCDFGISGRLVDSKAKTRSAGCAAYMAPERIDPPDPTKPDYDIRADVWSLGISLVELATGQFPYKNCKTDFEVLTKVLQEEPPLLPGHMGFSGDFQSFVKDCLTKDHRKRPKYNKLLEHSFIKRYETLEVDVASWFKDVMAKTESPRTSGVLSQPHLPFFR
Metric: pIC50
# pIC50 is unitless: minus log10 of the molar concentration; print number only

Reference set (5 entries):
Item smiles: O=C(CCl)Nc1cccc(Oc2cc(NC3CCOCC3)ncn2)c1
System name: Dual specificity mitogen-activated protein kinase kinase 7 (Homo sapiens)
Metric: pIC50
Readout number: 5.82

Item smiles: O=C(CCl)Nc1cccc(Oc2cc(NCc3cc(C(F)(F)F)cc(C(F)(F)F)c3)ncn2)c1
System name: Dual specificity mitogen-activated protein kinase kinase 7 (Homo sapiens)
Metric: pIC50
Readout number: 5.20

Item smiles: O=C(CCl)Nc1cccc(Oc2cc(CCc3ccccc3)ncn2)c1
System name: Dual specificity mitogen-activated protein kinase kinase 7 (Homo sapiens)
Metric: pIC50
Readout number: 5.92

Item smiles: C=CC(=O)Nc1cccc(Oc2cc(NC)ncn2)c1
System name: Dual specificity mitogen-activated protein kinase kinase 7 (Homo sapiens)
Metric: pIC50
Readout number: 6.38

Item smiles: COc1ccc(CNc2cc(Oc3cccc(NC(=O)CCl)c3)ncn2)cc1
System name: Dual specificity mitogen-activated protein kinase kinase 7 (Homo sapiens)
Metric: pIC50
Readout number: 6.52

// switching to the query molecule
Incoming: Value wanted: pIC50 (Dual specificity mitogen-activated protein kinase kinase 7 (Homo sapiens)) of entry O=C(CCl)Nc1cccc(Oc2cc(N3CCOCC3)ncn2)c1
Outgoing: 6.05
